target: 5-Lipoxygenase from RBL-1 20,000xg Supernatant (Rattus norvegicus); construct: 20,000 xg supernatant from 1.5 million homogenized RBL-1 cells; endogenous in cells; assay: 5-lipoxygenase inhibitory activity, 20,000 xg supernatant from homogenized RBL-1 cells; conditions: radiolabeled arachidonic acid, triplicate
measurement-type: IC50 (nM)
Give the value, in units of nM, as a plain number.

Some compounds with known IC50 results, for comparison:
[[record]]
compound = "CC(C#CCc1ccccc1)N(O)C(N)=O (stereo not drawn)"
measurement_type = "IC50"
unit_string = "nM"
observed_result = 2100

[[record]]
compound = "COc1ccc(C#CC(C)N(O)C(N)=O)cc1 (stereo not drawn)"
measurement_type = "IC50"
unit_string = "nM"
observed_result = 2000

[[record]]
compound = "CC(C#Cc1cccc(OCc2ccccc2)c1)N(O)C(N)=O (stereo not drawn)"
measurement_type = "IC50"
unit_string = "nM"
observed_result = 200

[[record]]
compound = "CC(C#Cc1ccc(Oc2ccccc2)cc1)N(O)C(N)=O (stereo not drawn)"
measurement_type = "IC50"
unit_string = "nM"
observed_result = 300

[[record]]
compound = "CNC(=O)N(O)C(C)C#Cc1ccc(Br)cc1 (stereo not drawn)"
measurement_type = "IC50"
unit_string = "nM"
observed_result = 500

[[record]]
compound = "NC(=O)N(O)CC#Cc1cccc(Oc2ccc(F)cc2)c1"
measurement_type = "IC50"
unit_string = "nM"
observed_result = 400

[[record]]
compound = "CC(C#Cc1cccc(Oc2ccncc2)c1)N(O)C(N)=O (stereo not drawn)"
measurement_type = "IC50"
unit_string = "nM"
observed_result = 1200

[[record]]
compound = "CCC(C#Cc1cccc(Oc2ccccn2)c1)N(O)C(N)=O (stereo not drawn)"
measurement_type = "IC50"
unit_string = "nM"
observed_result = 600

[[record]]
compound = "CC(C#Cc1cc2ccccc2s1)N(O)C(N)=O (stereo not drawn)"
measurement_type = "IC50"
unit_string = "nM"
observed_result = 100

[[record]]
compound = "COc1ccc(Oc2cccc(C#CC(C)N(O)C(N)=O)c2)cc1 (stereo not drawn)"
measurement_type = "IC50"
unit_string = "nM"
observed_result = 500


Entry under test: `Cc1ccc(Oc2cccc(C#CCN(O)C(N)=O)c2)cc1` . Its IC50 was 600

Entry under test: Cc1ccc(Oc2cccc(C#CC(C)N(O)C(N)=O)c2)cc1 (stereo not drawn) . Its IC50 was 400

Entry under test: CC(C)c1ccc(C#CC(C)N(O)C(N)=O)cc1 (stereo not drawn) . Its IC50 was 400

Entry under test: CC(C#CCN(C)Cc1ccccc1)N(O)C(N)=O (stereo not drawn) . Its IC50 was 3600

Entry under test: NC(=O)N(O)CC#CCOc1ccccc1 [Example 41, N-Hydroxy-N-(4-phenoxy-2-butynyl)urea] . Its IC50 was 3500

---

biological target: 5-Lipoxygenase from RBL-1 20,000xg Supernatant (Rattus norvegicus, UniProt P12527); construct: 20,000 xg supernatant from 1.5 million homogenized RBL-1 cells; endogenous in cells; host or cells: RBL-1 cells (20,000 xg supernatant of homogenate); test: 5-lipoxygenase inhibitory activity, 20,000 xg supernatant from homogenized RBL-1 cells; assay type: biochemical; conditions: radiolabeled arachidonic acid, triplicate
Sequence (P12527 whole entry): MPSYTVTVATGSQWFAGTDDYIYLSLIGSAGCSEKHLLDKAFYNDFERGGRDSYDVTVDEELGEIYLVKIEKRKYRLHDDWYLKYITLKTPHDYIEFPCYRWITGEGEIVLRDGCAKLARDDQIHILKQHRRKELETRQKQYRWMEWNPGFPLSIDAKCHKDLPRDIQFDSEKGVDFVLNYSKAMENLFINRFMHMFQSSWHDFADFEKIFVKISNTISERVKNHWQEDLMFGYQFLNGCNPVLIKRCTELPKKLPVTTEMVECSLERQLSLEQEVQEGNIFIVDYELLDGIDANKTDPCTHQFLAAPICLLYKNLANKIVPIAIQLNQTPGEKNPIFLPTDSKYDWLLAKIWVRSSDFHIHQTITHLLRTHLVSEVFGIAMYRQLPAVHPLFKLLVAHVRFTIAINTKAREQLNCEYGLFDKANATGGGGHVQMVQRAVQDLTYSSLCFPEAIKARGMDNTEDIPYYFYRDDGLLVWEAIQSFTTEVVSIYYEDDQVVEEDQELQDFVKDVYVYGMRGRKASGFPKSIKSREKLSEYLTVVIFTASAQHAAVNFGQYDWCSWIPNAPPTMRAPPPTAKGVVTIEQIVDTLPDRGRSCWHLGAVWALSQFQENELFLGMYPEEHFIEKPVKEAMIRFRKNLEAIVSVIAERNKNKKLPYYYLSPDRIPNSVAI
measurement-type: log10 of IC50 (log10 of the value in nM)
In plain terms, each number is the log10 of measured IC50 in nM.

[[record]]
compound = "CC(C#Cc1ccoc1)N(O)C(N)=O (stereo not shown) [Example 34]"
measurement_type = "log10 of IC50"
observed_result = 3.85


Entry under test: CC(C#Cc1ccc(Br)cc1)N(O)C(N)=O (stereo not shown) [Example 17] . Its log10 of IC50 was 2.90

Entry under test: CNC(=O)N(O)C(C)C#CCCc1ccccc1 (stereo not shown) [Example 27] . Its log10 of IC50 was 2.85

Entry under test: CC(C#Cc1ccc(Oc2ccc(F)cc2)o1)N(O)C(N)=O (stereo not shown) [Example 57] . Its log10 of IC50 was 2.30

Entry under test: COc1ccc(Oc2cccc(C#CCN(O)C(N)=O)c2)cc1 [Example 39] . Its log10 of IC50 was 2.78

Entry under test: CC(C#Cc1cccc(Oc2ccccc2)c1)N(O)C(N)=O (stereo not shown) [Example 3] . Its log10 of IC50 was 2.00

Entry under test: CNC(=O)N(O)C(C)C#Cc1ccc(Cl)cc1 (stereo not shown) [Example 20] . Its log10 of IC50 was 3.04

Entry under test: CC(C#Cc1ccc(F)cc1)N(O)C(N)=O (stereo not shown) [Example 21] . Its log10 of IC50 was 3.32

Entry under test: CCCCc1ccc(C#CC(C)N(O)C(N)=O)s1 (stereo not shown) [Example 13] . Its log10 of IC50 was 2.48

Entry under test: Cc1ccc(C#CC(C)N(O)C(N)=O)s1 (stereo not shown) [Example 14] . Its log10 of IC50 was 3.23

Entry under test: CC(C#CCCc1cccc(Oc2ccccn2)c1)N(O)C(N)=O (stereo not shown) [Example 55] . Its log10 of IC50 was 2.95

Entry under test: CC(C#CCOc1cccc(Oc2ccccc2)c1)N(O)C(N)=O (stereo not shown) [Example 45] . Its log10 of IC50 was 2.30

Entry under test: CC(C#CCCc1ccccc1)N(O)C(N)=O (stereo not shown) [Example 26, N-Hydroxy-N-(6-phenyl-3-hexyn-2-yl)urea] . Its log10 of IC50 was 2.95
